# Tested on: hemolymph peptidases
# procedure-text: in vitro
# Assay type: in vitro ADME, Diploptera punctata
# condition: female, Diploptera punctata
# Protocol: Day 5 mated female D. punctata were anaesthetized on ice before dissection. Following dissection, tissues were stored in saline (0.9% NaCl pH 7.0–7.2 or cockroach saline; NaCl 150 μM, KCl 12 μM, CaCl2.6 H2O 10 μM, MgCl2.6 H2O 3 μM, glucose 40 μM, HEPES 10 μM at pH 7.2–7.4) on ice. […] Degradation experiments were analyzed by RP-HPLC using a 220×4.6 mm Brownlee Phenyl column (5 μm) on a Spectra-Physics chromatography system with a Spectra-Physics Chromjet integrator and a Spectra-Physics 8490 detector. […]
Peptide text beside a SMILES is read from it.
assay-metric: half-life at 6 μM

Using the record for CC(C)C[C@H](NC(=O)C1(NC(=O)[C@H](Cc2ccccc2)NC(=O)[C@H](CC(N)=O)NC(=O)CCc2ccccc2)CC1)C(N)=O [AST(b)φ2, Hca-Asn-Phe-Cpa-Leu-NH2] (HELM PEPTIDE1{[O=C(CCc1ccccc1)[*:2]].N.F.[O=C(C1(N[*:1])CC1)[*:2]].L.[am]}$$$$V2.0) , report its half-life at 6 μM. 20.2 h
